Data origin, for the record: the supplement of paper PMC11908140

The entries below come with measured 8OG:A repair function score values attached.
B1: library; numbered along this chain (parent)
chain: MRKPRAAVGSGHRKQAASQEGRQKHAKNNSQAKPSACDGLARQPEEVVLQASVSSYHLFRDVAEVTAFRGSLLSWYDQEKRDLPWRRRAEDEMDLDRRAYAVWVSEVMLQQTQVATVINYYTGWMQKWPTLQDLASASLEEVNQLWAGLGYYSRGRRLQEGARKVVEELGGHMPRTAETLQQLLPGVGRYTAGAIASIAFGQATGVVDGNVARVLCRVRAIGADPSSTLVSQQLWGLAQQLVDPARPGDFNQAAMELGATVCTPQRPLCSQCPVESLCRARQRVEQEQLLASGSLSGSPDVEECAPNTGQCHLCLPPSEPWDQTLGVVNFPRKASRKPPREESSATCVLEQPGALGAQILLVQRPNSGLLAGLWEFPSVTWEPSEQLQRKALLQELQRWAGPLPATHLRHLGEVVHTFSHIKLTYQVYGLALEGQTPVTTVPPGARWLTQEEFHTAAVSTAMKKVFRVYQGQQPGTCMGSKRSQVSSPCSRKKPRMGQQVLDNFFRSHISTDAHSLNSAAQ

# Variants of: B1
# assayText: 8OG:A repair function score (normalized; synonymous = 0, nonsense = -1) (normalized log-likelihood score); higher = more repair activity (WT-like);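 further: cells sorted at 72 h after reporter transfection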
# testSettings: with 8OG:A DNA repair reporter (GFP) in HEK-293 MUTYH KO cells
readoutName: 8OG:A repair function score

sequenceChange: L184M
readoutName: 8OG:A repair function score
assayValue: -0.281

sequenceChange: R283D
readoutName: 8OG:A repair function score
assayValue: -0.662

sequenceChange: Q282N
readoutName: 8OG:A repair function score
assayValue: -0.0575

sequenceChange: H454S
readoutName: 8OG:A repair function score
assayValue: -0.168

sequenceChange: V165K
readoutName: 8OG:A repair function score
assayValue: -1.13

sequenceChange: D502S
readoutName: 8OG:A repair function score
assayValue: -0.0153

sequenceChange: S227I
readoutName: 8OG:A repair function score
assayValue: -0.232

sequenceChange: Q126M
readoutName: 8OG:A repair function score
assayValue: 0.0168

sequenceChange: G497T
readoutName: 8OG:A repair function score
assayValue: -0.00191

sequenceChange: G479A
readoutName: 8OG:A repair function score
assayValue: 0.00119

sequenceChange: D502H
readoutName: 8OG:A repair function score
assayValue: -0.0311

sequenceChange: Q239I
readoutName: 8OG:A repair function score
assayValue: -0.589

sequenceChange: R364V
readoutName: 8OG:A repair function score
assayValue: -0.616

sequenceChange: P225D
readoutName: 8OG:A repair function score
assayValue: -0.53

sequenceChange: Q426K
readoutName: 8OG:A repair function score
assayValue: 0.106

sequenceChange: G309M
readoutName: 8OG:A repair function score
assayValue: -0.0498

sequenceChange: A357P
readoutName: 8OG:A repair function score
assayValue: 0.04

sequenceChange: L295N
readoutName: 8OG:A repair function score
assayValue: -0.00265

sequenceChange: L215P
readoutName: 8OG:A repair function score
assayValue: -1.03

sequenceChange: T346V
readoutName: 8OG:A repair function score
assayValue: 0.0305

sequenceChange: L411Q
readoutName: 8OG:A repair function score
assayValue: -0.494

sequenceChange: R154K
readoutName: 8OG:A repair function score
assayValue: -0.609
